Assay: Animal PK study in mouse via i.v., p.o. and s.c. administration
Format: in vivo
Conditions: i.v.
Method: All treated animals received a single dose of a test compound (either through i.v., p.o., or s.c. administration) according to the regimen shown in the following table: […] For i.v. and s.c dose groups, appropriate amount of test compound was dissolved in 1% DMSO (increase to 5% maximum if necessary), 99% of 20% HP-β-Cyclodextron (w/v). […] All plasma samples were added to acetonitrile for protein precipitation and quantitatively analyzed by LC-MS/MS.
Reported PK CLiv values for a set of compounds
Lab book: enter the figure in mL/min/kg, no units written.

Solved entries (count: 2):
- CCOC(=O)N1CCc2cc(NS(=O)(=O)c3ccc(NC(=O)N[C@@H](C)c4cccc(Cl)c4Cl)cc3)ccc2C1: 27
- C[C@H](NC(=O)Nc1ccc(S(=O)(=O)Cc2ccc3c(c2)CCN(C)C3)cc1)c1cccc(Cl)c1Cl: 28.5

Recorded PK CLiv of CC(NC(=O)Nc1ccc(S(=O)(=O)Cc2ccc3c(c2)CN(CC2CC2)C3)cc1)c1ccccc1 (stereo not drawn) , please.
50.8

Entry C[C@H](NC(=O)Nc1ccc(S(=O)(=O)Nc2ccc3c(c2)CCNC3)cc1)c1cccc(Cl)c1Cl.Cl : reported PK CLiv = ?
592

Value lookup for PK CLiv; key = O=C(NCc1ccccc1Cl)Nc1ccc(S(=O)(=O)Cc2ccc3c(c2)CCNC3)cc1
42.5

Item C[C@H](NC(=O)Nc1ccc(S(=O)(=O)Cc2ccc(CC(C)(C)N(C)C)cc2)cc1)c1cccc(Cl)c1Cl has what recorded PK CLiv?
55.7
